Target: Insulin-like growth factor 1 receptor (Homo sapiens, UniProt P08069)
Experiment: Inhibition of recombinant N terminal His6-tagged human IGF1R (959 to end) expressed in baculovirus infected Sf21 cells after 80 mins by caliper mobility shift assay
reported.metric: IC50 (µM)

Example compounds with recorded IC50:
{"cpd.smiles": "COc1cc(CCc2cc(Nc3ccnc(NCc4cc(C)on4)n3)n[nH]2)cc(OC)c1", "IC50 [µM]": 12.6}
{"cpd.smiles": "Cc1cc(Nc2ccnc(NCc3cc(C(N)=O)no3)n2)[nH]n1", "IC50 [µM]": 7.94}
{"cpd.smiles": "Cc1cc(Nc2nc(NCCCc3c[nH]nc3C)ncc2Br)n[nH]1", "IC50 [µM]": 6.31}
{"cpd.smiles": "Cc1cc(Nc2nc(NCc3cc(C(=O)N4CCCC4)no3)ncc2Br)n[nH]1", "IC50 [µM]": 10}
{"cpd.smiles": "Cc1cc(CNc2nccc(Nc3cc(C)[nH]n3)n2)on1", "IC50 [µM]": 12.6}
{"cpd.smiles": "CCc1cc(Nc2nc(NCc3ccccn3)ncc2Br)n[nH]1", "IC50 [µM]": 3.16}
{"cpd.smiles": "COc1cc(CCc2cc(Nc3ccnc(NCc4cc(C)no4)n3)n[nH]2)cc(OC)c1", "IC50 [µM]": 6.31}
{"cpd.smiles": "Cc1cc(Nc2nc(NCCc3cccnc3)ncc2Br)[nH]n1", "IC50 [µM]": 6.31}

(1) Cc1cc(CNc2ncc(Cl)c(Nc3cc(C)[nH]n3)n2)on1
(2) CCc1cc(Nc2nc(NCc3cc(-c4ccccn4)no3)ncc2Br)n[nH]1
(3) COCCCc1cc(Nc2ccnc(NCc3cc(C(N)=O)no3)n2)[nH]n1
Q: Which order do these items take when sorted by rising IC50? List them. Write the labels, ordered according to the request.
A: 2, 1, 3
